Target: T1, TNF-beta (human, UniProt P01374 35-205)
T1 construct: also called TNFβ; Tumour Necrosis Factor-beta
T1 sequence (looked up): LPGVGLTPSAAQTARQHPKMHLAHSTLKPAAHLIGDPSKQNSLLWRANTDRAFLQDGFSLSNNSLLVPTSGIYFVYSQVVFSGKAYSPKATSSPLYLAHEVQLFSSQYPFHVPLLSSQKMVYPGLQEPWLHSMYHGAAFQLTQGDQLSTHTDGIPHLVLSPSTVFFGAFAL
Experiment: phage ELISA
measured.attribute: binding result

I068B04 (scFv) scFv: QVQLVQSGAEVKKPGSSVKVSCKASGGTVSSRTISWVRQAPGQGLEWMGGSLPPSGAPIYAQKFQGRVAITADALTNTAFMELRSLKSDDTAVYYCARDQGRYLDLWGRGTLVTVSSGGGGSGGGGSGGGGSALPVLTQPPSASATPGQRVTISCSGSSSNIGSNYVYWYQQLPGTAPKVLIYRNNQRPSGVPDRFSGSRSGTSASLAISGLRSEDEADYYCATWDDSLSGPVFGGGTKVTVLG = no binding
I018H08 (scFv, also called 1018H08) scFv: QVQLQQSGAEVKKPGASVNVSCKASGYTFTKYTMHWVRQAPGQGPEWMGWINGGSGDTKYSRKFQGRVTITKDTSASAAYMELSSLGSEDTALYYCARATYDPLTGYSFDGFDIWGQGTMVTVSSGGGGSGGGGSGGGGSQSVLTQPASVSGSPGQSITISCTGTSSDVGGYNYVSWYQQHPGKAPKLMIYEGSKRPSGVSNRFSGSKSGNTASLTISGLQAEDEADYYCSSYTTRSTRVFGGGTKLTILG = no binding
